// data source = patent US20260365670A1

- target.desc: EGFR (d746-750 C797S) (Homo sapiens, UniProt P00533, C797S/DEL746-750)
- Construct: purchased signalchem
- Sequence (P00533 with tags, fused parts or gaps DEL746-750/C797S limits assumed): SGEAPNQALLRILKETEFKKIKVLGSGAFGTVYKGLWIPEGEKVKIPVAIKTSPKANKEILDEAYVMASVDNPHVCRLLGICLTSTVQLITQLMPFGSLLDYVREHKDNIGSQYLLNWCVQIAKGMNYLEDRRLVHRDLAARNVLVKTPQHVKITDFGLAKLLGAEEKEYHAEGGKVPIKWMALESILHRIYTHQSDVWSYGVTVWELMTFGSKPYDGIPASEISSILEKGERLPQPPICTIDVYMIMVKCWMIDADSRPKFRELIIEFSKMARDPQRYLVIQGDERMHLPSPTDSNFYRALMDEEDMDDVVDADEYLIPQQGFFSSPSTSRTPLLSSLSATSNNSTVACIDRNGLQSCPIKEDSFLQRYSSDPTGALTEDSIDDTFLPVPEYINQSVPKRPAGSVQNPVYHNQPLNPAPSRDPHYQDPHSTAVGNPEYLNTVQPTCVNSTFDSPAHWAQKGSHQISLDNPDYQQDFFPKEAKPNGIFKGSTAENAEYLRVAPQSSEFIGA
- method: Inhibition of EGFR (d746-750 C797S) biochemical enzymatic activity (HTRF)
- condition.label: EGFR Del19-C797S, 1 mM ATP, 1 h, room temperature, read-out: IC50 (nM) @Del19-C797S
Could you mark each record Satisfied if its IC50 falls strictly under 5 nM, and Not satisfied if it equals or exceeds it?

As a guide, the following entries are already answered.
C[C@@H]1CCCOc2c(cnn2C)-c2cc(cn(C)c2=O)C(=O)Nc2nc3ccc(N4CC(N5CCN(C)CC5)C4)cc3n2C1 [Example A46] :: Satisfied
CN1CC2(CCN(c3ccc4nc5n(c4c3)C34CCC(CN(CCOc6c(cnn6C)-c6cc(cn(C)c6=O)C(=O)N5)C3)C4)C2)C1 (single isomer, unassigned) [Example A73B] :: Satisfied

[Q] For CN1CCC2(CCN(c3ccc4nc5n(c4c3)C34CCC(CN(CCOc6c(cnn6C)-c6cc(cn(C)c6=O)C(=O)N5)C3)C4)C2)C1 (single isomer, unassigned) [Example A81B] , is the recorded IC50 below the cut-off of 5 nM?
[A] Satisfied

[Q] For Cn1ncc2c1OCCN1CC3CCC(C3)(C1)n1c(nc3ccc(N4CCC(N5CC(F)C5)CC4)cc31)NC(=O)c1cc-2c(=O)n(C)c1 (single isomer, unassigned) [Example A87A] , is the recorded IC50 below the cut-off of 5 nM?
[A] Not satisfied

[Q] For Cn1ncc2c1OCCN1CC3CCC(C3)(C1)n1c(nc3ccc(N4CCC(N5CCOCC5)C4)cc31)NC(=O)c1cc-2c(=O)n(C)c1 (single isomer, unassigned) [Example A104A] , is the recorded IC50 below the cut-off of 5 nM?
[A] Not satisfied

[Q] For Cn1ncc2c1OCCN1CCCCC(C1)n1c(nc3ccccc31)NC(=O)c1cc-2c(=O)n(C)c1 (centres unmarked) [Example A8] , is the recorded IC50 below the cut-off of 5 nM?
[A] Not satisfied

[Q] For Cn1ncc2c1OCCN1CC3CCC(C3)(C1)n1c(nc3cc(F)c(N4CCOCC4)cc31)NC(=O)c1cc-2c(=O)n(C)c1 (single isomer, unassigned) [Example A118B] , is the recorded IC50 below the cut-off of 5 nM?
[A] Satisfied

[Q] For CN1CCN(c2ccc3c(c2)nc2n3C34CCC(CN(CCOc5c(cnn5C)-c5cc(cn(C)c5=O)C(=O)N2)C3)C4)CC1 (centres unmarked) [Example A60A] , is the recorded IC50 below the cut-off of 5 nM?
[A] Not satisfied

[Q] For Cn1ncc2c1OCCN1CC3CCC(C3)(C1)n1c(nc3ccc(N4CCN(C5CC5)CC4)cc31)NC(=O)c1cc-2c(=O)n(C)c1 (single isomer, unassigned) [Example A83B] , is the recorded IC50 below the cut-off of 5 nM?
[A] Satisfied

[Q] For CN1CCC12CCN(c1ccc3nc4n(c3c1)C13CCC(CN(CCOc5c(cnn5C)-c5cc(cn(C)c5=O)C(=O)N4)C1)C3)CC2 (single isomer, unassigned) [Example A67B] , is the recorded IC50 below the cut-off of 5 nM?
[A] Satisfied

[Q] For Cc1cc2cc(n1)-c1cnn(C)c1OCCN(CC(F)F)CCn1c(nc3ccccc31)NC2=O [Example B5] , is the recorded IC50 below the cut-off of 5 nM?
[A] Not satisfied

[Q] For C[C@@H]1CCCOc2c(cnn2C)-c2cc(cn(C)c2=O)C(=O)Nc2nc3ccc(N4CC5(CN(C)CCO5)C4)cc3n2C1 [Example A47] , is the recorded IC50 below the cut-off of 5 nM?
[A] Satisfied
